System: ABL1-nonphosphorylated
conditionParameters: concentration: 1 μM, replicates: in singlicate; n = 1
For each record, check the reported %Inh: if it is below 20% write Fulfilled, else write Not fulfilled.

{"columns": ["molecule", "label"],
 "data": [
  ["CCCc1ccc(S(=O)(=O)NC2CCN(c3ccnc(Nc4ccc(OC)cc4)n3)C2)cc1 (centres unmarked)", "Fulfilled"]
]}

Consider COc1ccc(Nc2nccc(N3CCC(NC(=O)c4cccc(NC(C)=O)c4)C3)n2)cc1 (centres unmarked) . Does its %Inh lie strictly below 20%?
Fulfilled

Consider CN1c2ccc(-c3ccc(C(=O)NCCO)cc3)cc2-c2[nH]ncc2S1(=O)=O . Does its %Inh lie strictly below 20%?
Not fulfilled

Consider C[C@@H]1CCN(C(=O)CO)C[C@@H]1N(C)c1ncnc2[nH]ccc12 . Does its %Inh lie strictly below 20%?
Not fulfilled

Consider Cn1ccc2ncnc(Nc3ccc(Oc4cccc(Cl)c4)c(Cl)c3)c21 . Does its %Inh lie strictly below 20%?
Not fulfilled

Consider Cc1ccc(O)cc1Nc1cc(C(F)(F)F)nc2ccc(-c3ccncc3)cc12 . Does its %Inh lie strictly below 20%?
Not fulfilled

* * *

Tested on: MYLK4
measuredAttribute: Kd (nM)
Numbers only; they are read as nM.

# query: Kd of entry Nc1nc(-c2cccnc2)c(-c2ccnc3ccccc23)s1
490

* * *

Tested on: SRPK3
pKd: −log10 of the molar value.
measuredAttribute: pKd

# query: pKd of entry Cn1cc(-c2ccc3c(c2)CCN3C(=O)Cc2cccc(C(F)(F)F)c2)c2c(N)ncnc21 [GSK2606414]
< 5.00

* * *

Recorded measurements of %Inh, one per entry
Test system: CDKL2
conditionParameters: concentration: 1 μM, replicates: in singlicate; n = 1

Some compounds with known %Inh results, for comparison:
{"columns": ["compound", "targetUnderTest", "%Inh"],
 "data": [
  ["Cc1ccc(O)cc1Nc1cc(C(F)(F)F)nc2ccc(-c3ccncc3)cc12 [GW630823]", "CDKL2", "0%"],
  ["Nc1nc(-c2ccc3c(N)n[nH]c3c2)cc(N2CCC[C@@H](C(=O)Nc3ccccc3)C2)n1.O=C(O)C(F)(F)F.O=C(O)C(F)(F)F [GSK2288359]", "CDKL2", "6%"],
  ["CCc1nc(-c2cccc(C)c2)c(-c2ccnc(NC(=O)c3ccccc3)c2)s1", "CDKL2", "0%"]
]}

Could you now look at the following compound, please?
# query: %Inh of entry CC(C)N1CCC(n2cnc(-c3ccc(F)cc3)c2-c2ccnc(N)n2)CC1 [SB-223132]
13%

* * *

System: FER
conditionParameters: concentration: 1 μM, replicates: in singlicate; n = 1
For each record, check the reported %Inh: if it is below 10% write YES, else write NO.

{"columns": ["molecule", "label"],
 "data": [
  ["Cn1cc(-c2ccc3c(c2)CCN3C(=O)Cc2cccc(C(F)(F)F)c2)c2c(N)ncnc21", "YES"],
  ["CCC(CC)(CC)n1cnc2c(N)ncnc21", "YES"],
  ["CS(=O)(=O)CCNCc1ccc(-c2ccc3ncnc(Nc4ccc(OCc5ccccc5)c(Cl)c4)c3c2)o1.Cl", "NO"],
  ["Cl.Fc1ccccc1COc1ccc(Nc2ncnc3ccc(-c4nnc(C(F)(F)F)o4)cc23)cc1Cl", "NO"],
  ["Fc1cccc(COc2ccc(Nc3ncnc4sc(-c5ccc[nH]5)cc34)cc2Cl)c1", "NO"],
  ["COc1cc2c(Nc3cccc(NC(=O)c4ccccc4)c3)ncnc2cc1OCCCN1CCOCC1", "YES"],
  ["CCCc1ccc(S(=O)(=O)NC2CCN(c3ccnc(Nc4ccc(OC)cc4)n3)C2)cc1 (stereo not drawn)", "NO"],
  ["Cc1cc(N2CCC(NS(=O)(=O)c3ccc(F)cc3)CC2)nc(Nc2cccc(C#N)c2)n1.O=C(O)C(F)(F)F", "NO"]
]}

Consider Oc1ccc2ncnc(Nc3ccc(OCc4ccccc4)cc3)c2c1 . Does its %Inh lie strictly below 10%?
YES

Consider CNc1nccc(-c2c(-c3ccc(F)cc3)ncn2CCCN2CCOCC2)n1 . Does its %Inh lie strictly below 10%?
NO

Consider Cn1ccc2ncnc(Oc3ccc(NC(=O)Nc4cccnc4)c(Cl)c3)c21 . Does its %Inh lie strictly below 10%?
YES

Consider Nc1n[nH]c2nnc(-c3ccccc3)cc12 . Does its %Inh lie strictly below 10%?
YES

Consider CN1CCC(n2cnc(-c3ccc(F)cc3)c2-c2ccnc(NC3CCNCC3)n2)CC1 . Does its %Inh lie strictly below 10%?
YES

Consider COc1cc2ncnc(Nc3ccc(OCc4ccccc4Br)c(Cl)c3)c2cc1OC.Cl . Does its %Inh lie strictly below 10%?
NO

Consider FC(F)(F)c1ccc(-c2cc(-c3c[nH]nc3-c3ccccn3)ccn2)cc1 . Does its %Inh lie strictly below 10%?
NO

Consider COC(=O)c1cccc(NC(=O)NCCNc2ccnc(Nc3ccc(F)cc3)n2)c1 . Does its %Inh lie strictly below 10%?
NO

Consider O=C(c1ccc(-c2cc(-c3c[nH]nc3-c3ccccn3)ccn2)cc1)N1CCCC1 . Does its %Inh lie strictly below 10%?
YES

Consider c1ccc(-c2ccc3c(-c4ccnc(Nc5ccc6c(c5)OCCO6)n4)cnn3n2)cc1 . Does its %Inh lie strictly below 10%?
NO

All values here come from paper PMC5540273.
